# Particulars: in n-butanol, 317.35 K
Property: solubility (mole fraction)

• C[C@@H]1CC[C@@]2(OC1)O[C@H]1C[C@H]3[C@@H]4CC=C5C[C@@H](O)CC[C@]5(C)[C@H]4CC[C@]3(C)[C@H]1[C@@H]2C = 0.00914

----------
# Particulars: in tert-butanol, 321.15 K
Property: solubility (mole fraction)

• C[C@@H]1CC[C@@]2(OC1)O[C@H]1C[C@H]3[C@@H]4CC=C5C[C@@H](O)CC[C@]5(C)[C@H]4CC[C@]3(C)[C@H]1[C@@H]2C = 0.00343

----------
# Particulars: in ethanol, 316.65 K
Property: solubility (mole fraction)

• C[C@@H]1CC[C@@]2(OC1)O[C@H]1C[C@H]3[C@@H]4CC=C5C[C@@H](O)CC[C@]5(C)[C@H]4CC[C@]3(C)[C@H]1[C@@H]2C = 0.00227
